Reported log10 of Ki values follow for various compounds
- STUDY_TARGET: C-C chemokine receptor type 5 (Homo sapiens)
- Sequence (P51681 whole entry): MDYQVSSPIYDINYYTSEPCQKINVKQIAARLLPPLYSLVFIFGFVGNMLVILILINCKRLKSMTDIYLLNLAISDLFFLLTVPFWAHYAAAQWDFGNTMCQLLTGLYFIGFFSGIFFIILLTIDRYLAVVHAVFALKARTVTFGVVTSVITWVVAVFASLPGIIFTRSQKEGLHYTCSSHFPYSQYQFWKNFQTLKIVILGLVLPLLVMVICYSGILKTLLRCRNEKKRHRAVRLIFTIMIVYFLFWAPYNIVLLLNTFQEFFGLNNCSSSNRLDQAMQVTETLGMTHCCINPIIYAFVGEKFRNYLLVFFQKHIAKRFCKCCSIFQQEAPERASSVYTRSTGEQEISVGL
- ASSAY_PROTOCOL: Binding affinity towards C-C chemokine receptor type 5
Please keep in mind that the values are log10 of Ki expressed in nM.

INSERT INTO assay_data (smiles_repr, endpoint_name, value_observed) VALUES
  ('C[C@H]1CN(C2(C)CCN(C(=O)c3c(N)cccc3Cl)CC2)CCN1[C@@H](C)c1ccc(I)cc1', 'log10 of Ki', 1.08);

input: Requested field: log10 of Ki. Item: "Cc1cccc(O)c1C(=O)N1CCC(C)(N2CCN([C@@H](C)c3ccc(S(C)(=O)=O)cc3)[C@@H](C)C2)CC1"
output: 1.18

input: Requested field: log10 of Ki. Item: "Cc1cccc(C)c1C(=O)N1CCC(C)(N2CCN([C@@H](C)c3ccc(S(C)(=O)=O)cc3)[C@@H](C)C2)CC1"
output: 0.48

input: Requested field: log10 of Ki. Item: "Cc1cccc(C)c1C(=O)N1CCC(N2CCN([C@@H](C)c3ccc(I)cc3)[C@@H](C)C2)CC1"
output: 1.30

input: Requested field: log10 of Ki. Item: "C[C@H]1CN(C2(C)CCN(C(=O)c3c(N)cccc3Cl)CC2)CCN1[C@@H](C)c1ccc(S(C)(=O)=O)cc1"
output: 0.70

input: Requested field: log10 of Ki. Item: "C[C@H]1CN(C2(C)CCN(C(=O)c3c(N)cccc3Cl)CC2)CCN1[C@@H](C)c1ccc(C(F)(F)F)cc1"
output: 0.70

input: Requested field: log10 of Ki. Item: "Cc1cccc(C)c1C(=O)N1CCC(C)(N2CCN(Cc3ccc(I)cc3)CC2)CC1"
output: 1.79

input: Requested field: log10 of Ki. Item: "Cc1cccc(C)c1C(=O)N1CCC(N2CCN(Cc3ccc(I)cc3)[C@@H](C)C2)CC1"
output: 1.48

---

- Tested on: Canis familiaris
- ASSAY_PROTOCOL: Area under concentration curve in Beagle dogs after iv administration (0-24 hr)
- Assay type: ADME, organism-based, Canis lupus familiaris
- Parameters: time < 24 hr, route intravenous
- CONDITION_SUMMARY: dog, in vivo
Reported AUC values follow for various compounds
State just the number; it will be interpreted in ng·h/mL.

INSERT INTO results (smiles_repr, value_observed) VALUES
  ('Cc1ccnc(C)c1C(=O)N1CCC(C)(N2CCN([C@@H](C)c3ccc(C(F)(F)F)cc3)[C@@H](C)C2)CC1', 1610);

--- query ---
input: Record lookup: for Canis familiaris, what AUC belongs to "Cc1cc[n+]([O-])c(C)c1C(=O)N1CCC(C)(N2CCN([C@@H](C)c3ccc(C(F)(F)F)cc3)[C@@H](C)C2)CC1" ?
output: 3240

---

- STUDY_TARGET: C-C chemokine receptor type 5 (Homo sapiens)
- ASSAY_PROTOCOL: Binding affinity at C-C chemokine receptor type 5
ENDPOINT_NAME: Ki (nM)
State just the number; it will be interpreted in nM.

INSERT INTO measurements (smiles_repr, value_observed) VALUES
  ('Cc1ccnc(C)c1C(=O)N1CCC(C)(N2CCN([C@@H](C)c3ccc(C(F)(F)F)cc3)[C@@H](C)C2)CC1', 2.3);

--- query ---
input: Requested field: Ki. Item: "Cc1cc[n+]([O-])c(C)c1C(=O)N1CCC(C)(N2CCN([C@@H](C)c3ccc(C(F)(F)F)cc3)[C@@H](C)C2)CC1"
output: 7

Taken from ChEMBL document CHEMBL1134622.
